# experimental-system: Trace amine-associated receptor 1 (Homo sapiens)
# test-name: blockers of beta-PEA-driven TAAR1 calcium signal – Fluo-8 calcium fluorescence, CHO RD-HGA16 cells, primary screen (AID 624466);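 also: 0% = DMSO plus EC80 beta-PEA response and 100% = DMSO alone without agonist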
# stated-conditions: CHO RD-HGA16 TAAR1, Fluo-8 calcium fluorescence, antagonist; at 3 µM
About 5,400 (1.5%) of roughly 360,000 compounds were called active.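 The calls were made as follows: active = inhibition above a per-plate cutoff, the mean inhibition of test compounds on that plate plus 3 SD (cut at about 49% in these data); inactive = the rest.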 The entries come from a sample that favours actives as a whole.
Your answer must be one of the following: yes (1) = active, no (0) = inactive

stdin: Would you mind telling me which call this test gave COCCNC(=O)CCCN1C(=O)c2ccccc2Sc2ncccc21 ?
stdout: no (0)

stdin: Would you mind telling me which call this test gave Cc1cc(C(=O)N2CCN(c3ccccn3)CC2)c(C)o1 ?
stdout: no (0)

stdin: Would you mind telling me which call this test gave O=C(NNC(=O)c1ccccc1O)c1ccccc1O ?
stdout: no (0)

stdin: Would you mind telling me which call this test gave O=C1NC[C@H](Cc2ccc(O)cc2)N(C[C@H]2CCCN2C[C@H](Cc2ccccc2)N2C[C@H](Cc3ccccc3)N(CCc3ccccc3)C(=O)C2=O)C1=O ?
stdout: no (0)

stdin: Would you mind telling me which call this test gave CC(C)(C)c1ccc(CN2C(=O)c3ccccc3S2(=O)=O)cc1 ?
stdout: no (0)

stdin: Would you mind telling me which call this test gave C[C@H](NC(=O)c1nc[nH]c1C(=O)NCC(=O)OC(C)(C)C)C(=O)OCc1ccccc1 ?
stdout: yes (1)

stdin: Would you mind telling me which call this test gave CC(C)(C)OC(=O)NCCCCCNC(=O)c1nc[nH]c1C(=O)NCc1ccccc1 ?
stdout: yes (1)

stdin: Would you mind telling me which call this test gave Cc1ccc(C)c(N2CCN(C(=O)CCCn3c(=O)c4cccn4c4cccnc43)CC2)c1 ?
stdout: no (0)

stdin: Would you mind telling me which call this test gave COc1ccc(-c2ccc(CN3C(CC(C)C)C(=O)N(Cc4cn(CC5CCCCC5)nn4)CCS3(=O)=O)cc2)cn1 (stereo not given) ?
stdout: no (0)

stdin: Would you mind telling me which call this test gave CC[C@@H]1CC2=C(C(=O)OC(C)(C)O2)[C@@H](CC)O1 ?
stdout: no (0)

stdin: Would you mind telling me which call this test gave O=C(NNc1c2ccccc2nc2ccccc12)c1cc2ccccc2cc1O ?
stdout: yes (1)

stdin: Would you mind telling me which call this test gave CC(C)(C)OC(=O)CNC(=O)c1[nH]cnc1C(=O)N[C@@H](Cc1ccccc1)C(=O)OCc1ccccc1 ?
stdout: yes (1)

stdin: Would you mind telling me which call this test gave COc1ccc2[nH]c3c(c2c1)CCN1C(=O)C(CC(=O)NCCc2ccccn2)C[C@H](C(=O)N2CCOCC2)[C@@]31C (stereo not given in full) ?
stdout: no (0)

stdin: Would you mind telling me which call this test gave Cc1ccc(S(=O)(=O)CC(=O)NC(C)c2ccccc2)cc1 (stereo not given) ?
stdout: no (0)

stdin: Would you mind telling me which call this test gave Cc1ccc(C)c(S(=O)(=O)N2CCN(c3ncnc4sccc34)CC2)c1 ?
stdout: yes (1)

stdin: Would you mind telling me which call this test gave CCOc1ccc(NC(=O)CN(C)C(=O)c2c(C)noc2C)cc1OCC ?
stdout: no (0)

stdin: Would you mind telling me which call this test gave Cc1ccc(C)c(S(=O)(=O)N2CCN(CC(=O)Nc3ccc([N+](=O)[O-])cc3)CC2)c1 ?
stdout: no (0)

stdin: Would you mind telling me which call this test gave COCc1[nH]nc2c1C(c1ccccc1)N(c1ccccc1)C2=O (stereo not given) ?
stdout: no (0)

stdin: Would you mind telling me which call this test gave COc1cccc(N2CCN(CC(=O)Nc3ccnn3C3CCCC3)CC2)c1 ?
stdout: no (0)

stdin: Would you mind telling me which call this test gave CN1C(=O)C2CC(O)C(SC3CC4C(=O)N(C)C(=O)C4CC3O)CC2C1=O (stereo not given) ?
stdout: no (0)

stdin: Would you mind telling me which call this test gave CCOC(=O)c1c(NC(=O)C2(C)Cc3ccccc3C(=O)O2)sc2c1CCCC2 (stereo not given) ?
stdout: no (0)

stdin: Would you mind telling me which call this test gave Cc1cccc(NC(=O)c2nc[nH]c2C(=O)NCC(=O)OCc2ccccc2)c1 ?
stdout: yes (1)

stdin: Would you mind telling me which call this test gave C[C@H](NC(=O)c1nc[nH]c1C(=O)N[C@@H](C)C(=O)OC(C)(C)C)C(=O)OC(C)(C)C ?
stdout: no (0)

stdin: Would you mind telling me which call this test gave CCN(CC)Cc1c(C(=O)N/N=C/c2cccc(OCc3ccc(F)cc3)c2)nnn1-c1nonc1N ?
stdout: no (0)

stdin: Would you mind telling me which call this test gave CCOc1ccc(Cn2nnc(C(=O)Nc3ccc(OC)cc3OC)c2N)cc1 ?
stdout: no (0)

stdin: Would you mind telling me which call this test gave Nc1[nH]c(C(=O)c2ccccc2)c(-c2ccncc2)c1C(=O)NCc1cccc2ccccc12 ?
stdout: no (0)

stdin: Would you mind telling me which call this test gave COc1ccc(CNC(=O)CN2C(=O)c3ccccc3S2(=O)=O)cc1 ?
stdout: no (0)

stdin: Would you mind telling me which call this test gave O=C(NS(=O)(=O)c1cccs1)[C@H]1O[C@@H](n2ccc(=O)[nH]c2=O)[C@H](O)[C@@H]1O ?
stdout: no (0)

stdin: Would you mind telling me which call this test gave Cn1nnc(NC(=S)NC(=O)c2ccccc2)n1 ?
stdout: no (0)

stdin: Would you mind telling me which call this test gave Cc1ccc(C)c(-c2nnc(NC(=O)CS(=O)(=O)c3ccccc3)o2)c1 ?
stdout: no (0)

stdin: Would you mind telling me which call this test gave CSc1ncnc2c1ncn2CCCNCC1CCCCC1 ?
stdout: no (0)

stdin: Would you mind telling me which call this test gave CN(CC(=O)NCc1ccc(Cl)cc1)S(=O)(=O)c1cccs1 ?
stdout: no (0)

stdin: Would you mind telling me which call this test gave Cc1ccc(SCc2c(C(=O)N/N=C/c3cccnc3)nnn2-c2nonc2N)cc1 ?
stdout: yes (1)

stdin: Would you mind telling me which call this test gave O=C(COC(=O)c1ccc(O)cc1O)NC(=O)c1ccccc1 ?
stdout: no (0)

stdin: Would you mind telling me which call this test gave CC(C)(C)OC(=O)NCCCCCNC(=O)c1[nH]cnc1C(=O)Nc1nccs1 ?
stdout: no (0)

stdin: Would you mind telling me which call this test gave CC(C)CC1C(=O)N(Cc2cn(CC3CCCCC3)nn2)CCS(=O)(=O)N1Cc1ccc(-c2ccc(Cl)cc2)cc1 (stereo not given) ?
stdout: no (0)

stdin: Would you mind telling me which call this test gave O=C(COC(=O)c1cc(S(=O)(=O)N2CCOCC2)ccc1Cl)NCCc1ccccc1 ?
stdout: no (0)

stdin: Would you mind telling me which call this test gave O=C(Nc1cc(Br)ccc1F)c1nc[nH]c1C(=O)NCc1ccccc1 ?
stdout: no (0)

stdin: Would you mind telling me which call this test gave COCOCCn1cc(CN2CCS(=O)(=O)N(Cc3ccc(-c4cccc(N(C)C)c4)cc3)C(CC(C)C)C2=O)nn1 (stereo not given) ?
stdout: no (0)

stdin: Would you mind telling me which call this test gave CC(C)N1C(=O)c2ccccc2NC(=O)C1C(=O)NCc1cccs1 (stereo not given) ?
stdout: no (0)

###

# experimental-system: Trace amine-associated receptor 1 (Homo sapiens)
# test-name: blockers of beta-PEA-driven TAAR1 calcium signal – Fluo-8 calcium fluorescence, CHO RD-HGA16 cells, primary screen (AID 624466);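 also: 0% = DMSO plus EC80 beta-PEA response and 100% = DMSO alone without agonist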
# stated-conditions: CHO RD-HGA16 TAAR1, Fluo-8 calcium fluorescence, antagonist; at 3 µM; active compounds read high
Screen size: about 360,000 compounds; about 5,400 (1.5%) were called active. For the sample, actives were picked, then their nearest neighbours and some compounds at random.
reported-endpoint: inhibition (%)
Expressed in %, but write only the number.

What the record says about O=C1/C(=C\c2ccc([N+](=O)[O-])cc2)CS(=O)(=O)C/C1=C/c1ccc([N+](=O)[O-])cc1 : inhibition is 36.7

What the record says about COc1ccc(/C=C/C(=O)OCC(=O)NC2CCCCCC2)cc1OC : inhibition is -27.2

What the record says about O=C(CSc1nc(-c2ccco2)cc(C(F)(F)F)n1)N1CCc2ccccc2C1 : inhibition is -4.26

What the record says about CCC(c1nnnn1Cc1ccco1)N(CCc1ccccc1)Cc1cc2ccc(OC)cc2[nH]c1=O (centres undefined) : inhibition is 85.2

What the record says about COc1ccc(-c2cc(C(F)(F)F)nc(SCCC(=O)NCc3ccco3)n2)cc1 : inhibition is -2.48

What the record says about COC(=O)[C@]1(C)N[C@H](c2ccc(-c3ccc(Cl)c(Cl)c3)cc2)[C@@H]2C(=O)N(C)C(=O)[C@@H]21 : inhibition is 20.9

What the record says about COc1cc(/C=C/C(=O)Nc2ccc(OC)c(S(=O)(=O)N3CCOCC3)c2)ccc1OCC#N : inhibition is 14.8

What the record says about CCC(c1nnnn1Cc1ccco1)N(Cc1cc2cc(OC)ccc2[nH]c1=O)C1CCCCC1 (centres undefined) : inhibition is -35.8

What the record says about Cc1ccc(Cc2c(-c3ccc(Cl)cc3)nc3c4ccccc4ccn23)cc1 : inhibition is -7.64
